- Test system: MCF7
- assay notes: Cytotoxicity against human MCF7 cells after 72 hrs by MTT assay
- Assay type: functional
- condition parameters: MCF7, 72 h
value kind: GI50 (nM)
Provide only the numeric value, understood in nM.

// solved cases for GI50 follow
molecule: CC1(C)N=C(N)N=C(N)N1c1ccc(C(=O)/C=C/c2ccccc2)cc1
GI50 (nM): 3000

molecule: CN(Cc1cnc2nc(N)nc(N)c2n1)c1ccc(C(=O)N[C@@H](CCC(=O)O)C(=O)O)cc1 [METHOTREXATE]
GI50 (nM): 24

molecule: CC1(C)N=C(N)N=C(N)N1OCc1ccccc1
GI50 (nM): 2500

molecule: CC1(C)N=C(N)N=C(N)N1c1cccc(C(=O)/C=C/c2ccccc2)c1
GI50 (nM): 34400

Query molecule follows.
Entry CC1(C)N=C(N)N=C(N)N1c1cccc(/C=C/C(=O)c2ccccc2)c1 : GI50 on MCF7 = 51500

====

- assay notes: Inhibition of rat liver thioredoxin reductase after 30 mins by DTNB reduction assay in presence of NADPH
Below, each entry is listed alongside its reported pIC50.
A value of pIC50 is the negative decimal logarithm of a concentration given in moles per litre.

compound: CC1(C)N=C(N)N=C(N)N1c1cccc(/C=C/C(=O)c2ccccc2)c1
pIC50: 5.14

Per the record, O=C(/C=C/c1ccccc1)c1ccccc1 [CHALCONE] has pIC50 of 4.33

Value of measured pIC50 for the entry CC1(C)N=C(N)N=C(N)N1c1ccc(C(=O)/C=C/c2ccccc2)cc1 : 4.73

Looking up CC1(C)N=C(N)N=C(N)N1c1cccc(C(=O)/C=C/c2ccccc2)c1 , I found its pIC50 recorded as 4.80

get_value(item= CC1(C)N=C(N)N=C(N)N1c1ccc(/C=C/C(=O)c2ccccc2)cc1 , readout=pIC50) returns 5.21

====

- assay notes: Inhibition of rat liver thioredoxin reductase after 60 mins by DTNB reduction assay in presence of NADPH
Listing: IC50 of selected compounds

The compound listed as COc1ccccc1/C=C/C(=O)c1ccccc1 shows IC50 equal to 24.5 µM

The reported value for CC1(C)N=C(N)N=C(N)N1c1ccc(/C=C/C(=O)c2ccccc2)cc1 in terms of IC50 is 5.4 µM

Summary for this compound, CN(Cc1cnc2nc(N)nc(N)c2n1)c1ccc(C(=O)N[C@@H](CCC(=O)O)C(=O)O)cc1 [METHOTREXATE] : IC50 is > 100 µM

====

Measured LC50 accompanies every entry in the list below.
- Tested on: MCF7
- assay notes: Cytotoxicity against human MCF7 cells after 72 hrs by MTT assay
- Type: functional
- condition parameters: MCF7, 72 h

Measured LC50 of CC1(C)N=C(N)N=C(N)N1c1ccc(C(=O)/C=C/c2ccccc2)cc1 : > 100 µM

Field LC50 (entry O=C(/C=C/c1cc(F)ccc1O)c1ccccc1 ) reads 17 µM

Given item CC1(C)N=C(N)N=C(N)N1c1cccc(C(=O)/C=C/c2ccccc2)c1 , the value recorded as its LC50 is > 100 µM

The recorded LC50 for entry CC1(C)N=C(N)N=C(N)N1OCc1ccccc1 equals > 100 µM

The compound listed as CC1(C)N=C(N)N=C(N)N1c1ccc(/C=C/C(=O)c2ccccc2)cc1 has a reported LC50 of > 100 µM

For reference, reported LC50 for CC1(C)N=C(N)N=C(N)N1c1cccc(/C=C/C(=O)c2ccccc2)c1 stands at > 100 µM
